Kindly supply the reported pKi values for the records listed here.
Target: Factor XIIa (Homo sapiens)
Sequence (P00748 373-615 limits assumed): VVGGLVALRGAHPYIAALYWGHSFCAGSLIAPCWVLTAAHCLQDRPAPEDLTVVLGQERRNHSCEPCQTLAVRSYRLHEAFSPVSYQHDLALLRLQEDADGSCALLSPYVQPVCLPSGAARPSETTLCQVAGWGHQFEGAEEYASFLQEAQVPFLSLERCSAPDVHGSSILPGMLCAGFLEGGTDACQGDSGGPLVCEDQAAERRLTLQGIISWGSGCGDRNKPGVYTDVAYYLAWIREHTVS
Answers are plain numbers, as −log10 of the molar value.

Previously resolved entries follow.
{"compound": "N=C(N)c1ccc(C=C2CCCCC(=Cc3ccc(C(=N)N)cc3)C2=O)cc1", "target-or-system": "Factor XIIa (Homo sapiens)", "pKi": 6.44}
{"compound": "N=C(N)NCCC[C@@H](NS(=O)(=O)Cc1ccccc1)C(=O)NCC(=O)NCc1ccc(C(=N)N)cc1", "target-or-system": "Factor XIIa (Homo sapiens)", "pKi": 6.46}

pKi for Factor XIIa (Homo sapiens) with input CC(=N)N1CC[C@H](Oc2ccc([C@H](Cc3ccc4ccc(C(=N)N)cc4c3)C(=O)O)cc2)C1 [DX-9065a] equals 6.47
